Target: T1, human CD22-ECD-His protein (human, UniProt P20273 20-687)
T1 construct: Made in house in HEK293E; also called hCD22-ECD-His; recombinant human CD22-ECD His protein; not shown: His tag
T1 sequence: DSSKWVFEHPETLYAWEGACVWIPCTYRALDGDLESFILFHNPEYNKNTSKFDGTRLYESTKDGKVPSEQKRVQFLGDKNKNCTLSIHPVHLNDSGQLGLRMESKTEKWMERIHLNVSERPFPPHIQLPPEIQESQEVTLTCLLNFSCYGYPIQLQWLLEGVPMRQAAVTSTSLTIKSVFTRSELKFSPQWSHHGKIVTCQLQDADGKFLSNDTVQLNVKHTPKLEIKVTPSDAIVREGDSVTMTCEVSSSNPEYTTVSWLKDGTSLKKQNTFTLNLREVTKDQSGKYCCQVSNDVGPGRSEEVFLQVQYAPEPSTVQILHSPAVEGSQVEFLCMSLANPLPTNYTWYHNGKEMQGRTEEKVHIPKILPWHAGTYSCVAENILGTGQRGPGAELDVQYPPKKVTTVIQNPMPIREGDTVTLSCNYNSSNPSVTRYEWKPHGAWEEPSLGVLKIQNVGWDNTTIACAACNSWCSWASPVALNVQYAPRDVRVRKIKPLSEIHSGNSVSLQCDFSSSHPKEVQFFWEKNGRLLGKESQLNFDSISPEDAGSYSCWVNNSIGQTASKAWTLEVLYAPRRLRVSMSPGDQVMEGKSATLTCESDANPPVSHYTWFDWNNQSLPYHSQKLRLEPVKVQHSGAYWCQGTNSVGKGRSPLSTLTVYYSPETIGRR
Test: ELISA, Ab 10.00 nM

- binder: "F1.200.11 (antibody, human IgG1, kappa, V domains shown, Human-murine chimeric IgG1, kappa) VH: QNQLVQSGPELKKPGETVKISCKASGYTFTTAGMQWVQKMPGKGFKWIGWINTLSGEPKYAEDFKGRFAFSLETSATTAYLQISNLKNEDTATYFCARAYYSNLYWYFDVWGTGTTVTVSS VL: DIVMTQSQKFMSTTVGDRVTITCKASQNVVTAVAWYQQKPGQSPKVLIYSASNRYSGVPDRFTGSGSGTDFTLTISNMHSEDLANYFCHQYSSYPFTFGSGTKLEIKR"
  OD450, OD450: 2.33
- binder: "F2.205.9 (antibody, human IgG1, lambda, V domains shown, Human-murine chimeric IgG1, lambda) VH: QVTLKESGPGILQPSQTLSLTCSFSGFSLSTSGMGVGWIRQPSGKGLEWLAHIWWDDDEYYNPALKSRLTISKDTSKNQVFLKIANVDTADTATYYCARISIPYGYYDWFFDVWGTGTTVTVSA VL: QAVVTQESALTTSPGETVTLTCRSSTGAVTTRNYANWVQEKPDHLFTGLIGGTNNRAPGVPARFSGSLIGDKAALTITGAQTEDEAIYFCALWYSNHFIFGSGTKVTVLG"
  OD450, OD450: 2.11
- binder: "F2.42.9 (antibody, human IgG1, lambda, V domains shown, Human-murine chimeric IgG1, lambda) VH: QVTLKESGPGILQPSQTLSLTCSFSGFSLSTFDRGVGWIRQPSGKGLEWLAHIWWNDKKFYNPVLKSRLTISKDTSKNQVFLTIANVDSADTATYSCARIVWDKYYFDYWGQGIPLTVSS VL: QLVLTQSSSASFSLGASAKLTCTLSSQHSAYTIEWYQQQPLKPPKFVMDLKKDGSHSTGDGIPARFSGSSSGADRYLTISNIQPEDEAIYICGVGDTIKEQYVFGGGTKVTVLG"
  OD450, OD450: 2.68
- binder: "F2.180.16 (antibody, human IgG1, lambda, V domains shown, Human-murine chimeric IgG1, lambda) VH: EVKLVESGGGLVLPGGSLKISCAASGFTFSDYYMYWIRQTPDKRLEWVAYISNTGYSTFYPDSVKGRFTVSRDNAKNTLYLQMSRLQSEDTAMYYCARHGILYAMDYWGQGTSVTVSS VL: QPVLTQSSSASFSLGASAKLTCTLSSQYSTYTIGWYQQQPLKPPKYVMELKHDGSRHTGDGIPDRFSGSSSGADRYLSISNIQPEDEATYICGVGDTIKEQFMYVFGGGTKVTVLG"
  OD450, OD450: 2.08
- binder: "F2.55.1 (antibody, human IgG1, lambda, V domains shown, Human-murine chimeric IgG1, lambda) VH: QVTLKESGPGILQPSQTLSLTCSFSGFSLSTFPLGVGWIRQPSGKGLEWLAHVWWNDDDYYNPALKSRLTISKDTSNTRVFLSVASVDTAETATYYCARLNWDRWYFDVWGTGTTVTVSS VL: QLVLTQSSSASFSLGASAKLTCTLSSQHSAYTVEWYQQQPLKPPKYVMELKKDGSHSTGDGIPDRFSGSSSGADRYLSISNIQPEDEAIYICGVGDTVKEQFVFGGGTKVTVLG"
  OD450, OD450: 2.16
